System: P388 leukemia ip, CD2F1 mice, survival T/C
Assay: NCI In Vivo Anticancer Drug Screen. Data for tumor model P388 Leukemia (intraperitoneal) in CD2F1 (CDF1) mice
Settings: endpoint: median survival time; dose: 200.0 mg/kg/injection; schedule: Q01DX009 (ip); vehicle: other; higher = longer survival
Toxic doses and inconclusive results are not listed.
Entries and their T/C values follow.

[[record]]
compound = "Cc1[nH]c(=O)[nH]c(=O)c1/C=C/C(=O)NC(CO)CSC(C)C (centres undefined)"
parameter_measured = "T/C"
recorded_value = "90 % of control"

[[record]]
compound = "COc1ccc(-c2cc(=O)c3ccc4cc(OC)c(OC)cc4c3o2)cc1"
parameter_measured = "T/C"
recorded_value = "91 % of control"

[[record]]
compound = "COc1ccc(C(=O)/C(C)=C(/C)NCCC#N)c(OCc2ccccc2)c1OC"
parameter_measured = "T/C"
recorded_value = "100 % of control"


# input for lookup
Ask: Fill in T/C for record COc1cc(Br)c(C(=O)N2CCCc3ccccc32)cc1OC
Result: 94 % of control

----------
System: P388 leukemia ip, CD2F1 mice, survival T/C
Assay: NCI In Vivo Anticancer Drug Screen. Data for tumor model P388 Leukemia (intraperitoneal) in CD2F1 (CDF1) mice
Conditions: endpoint: median survival time; dose: 25.0 mg/kg/injection; schedule: Q01DX005 (ip); vehicle: Klucel (hydroxypropylcellulose) (HPC); higher = longer survival
Inconclusive results and toxic doses are left out.
Parameter Measured: T/C

Study these solved cases before continuing.
[[record]]
molecule = "Oc1c(Br)cc(Br)cc1Oc1c(O)c(Br)c(Br)c(Br)c1Br"
recorded_value = "104 % of control"

[[record]]
molecule = "CC(=O)OC1NC(=O)C(OC(C)=O)NC1=O (configuration not stated)"
recorded_value = "100 % of control"


Ask: Fill in T/C for record [Cl][Pd][Cl].[NH-]C(CC(N)=O)C(=O)O (configuration not stated)
Result: 95 % of control

Ask: Fill in T/C for record CCOC(=O)Nc1nc2ccccc2n1CN1CCCCC1
Result: 97 % of control

Ask: Fill in T/C for record CCCc1cc(=O)n(-c2ccc([N+](=O)[O-])cn2)c(=S)[nH]1
Result: 106 % of control

Ask: Fill in T/C for record Cn1[nH]c2[nH]c(=S)sc(=S)c2c1=O
Result: 109 % of control

Ask: Fill in T/C for record O=C(NCCCl)Oc1c(Cl)cc(Cl)cc1Cl
Result: 104 % of control

----------
Entries and their T/C values follow.
System: P388 leukemia ip, CD2F1 mice, survival T/C
Assay: NCI In Vivo Anticancer Drug Screen. Data for tumor model P388 Leukemia (intraperitoneal) in CD2F1 (CDF1) mice
Conditions: endpoint: median survival time; dose: 200.0 mg/kg/injection; schedule: Q04DX002 (ip); vehicle: saline with Tween-80; higher = longer survival
Inconclusive results and toxic doses are left out.

[[record]]
compound = "CSC(=S)n1nc(-c2ccccc2)c(N=Nc2cccc(C)c2C)c1-c1ccccc1"
recorded_value = "89 % of control"

[[record]]
compound = "OCC(O)C(O)C(O)c1nnc2c3ccccc3c(-c3ccccc3)nn12 (stereo not given)"
recorded_value = "90 % of control"

[[record]]
compound = "CC1=NN(C2=NS(=O)(=O)c3ccccc3N2c2ccccc2)C(=O)C1"
recorded_value = "106 % of control"

[[record]]
compound = "CC(CN=C(CC(=O)C(F)(F)F)C(F)(F)F)N=C(CC(=O)C(F)(F)F)C(F)(F)F.[Ni] (stereo not given)"
recorded_value = "98 % of control"


# input for lookup
Ask: Fill in T/C for record COC(=O)c1c(-c2ccc3c(c2)OCO3)c(C=O)n(C)c1C
Result: 87 % of control
